Data origin: patent US10336746B1

- Procedure text: Bi-directional Caco-2 permeability
- Type: in vitro ADME
- Conditions used: human, Caco-2; read-out: BA/AB Ratio
Measured parameter: efflux ratio at 90 min

Below, each entry is followed by its recorded efflux ratio at 90 min result.
[[record]]
compound = "CC(C)NC(=O)O[C@H]1CC[C@H](c2ncc(-c3ccc(NC(=O)NCc4ccccc4)cc3S(=O)(=O)NC(C)(C)C)s2)CC1"
recorded_number = 3

[[record]]
compound = "CC(C)NC(=O)O[C@H]1CC[C@H](c2ncc(-c3ccc(NC(=O)OC(C)C)cc3S(=O)(=O)NC(C)(C)C)s2)CC1"
recorded_number = 1.1

[[record]]
compound = "CC(C)(C)NS(=O)(=O)c1cc(NC(=O)NCc2ccccc2)ccc1-c1cnc([C@H]2CC[C@H](NC(=O)OC(C)(C)C)CC2)s1"
recorded_number = 1.3

[[record]]
compound = "CC(C)(C)NS(=O)(=O)c1cc(NC(=O)NCc2ccccn2)ccc1-c1cnc(C2CCC(NC(=O)OC(C)(C)C)CC2)s1 (stereo not drawn)"
recorded_number = 1.4

[[record]]
compound = "CC(C)OC(=O)NC1CCC(c2ncc(-c3ccc(NC(=O)OC4COC4)cc3S(=O)(=O)NC(C)(C)C)s2)CC1 (stereo not drawn)"
recorded_number = 1.3

[[record]]
compound = "CC(C)OC(=O)N[C@H]1CC[C@H](c2ncc(-c3ccc(NC(=O)OC[C@@H]4CCCN4C)cc3S(=O)(=O)NC(C)(C)C)s2)CC1"
recorded_number = 99.1

[[record]]
compound = "CC(C)OC(=O)Nc1ccc(-c2cnc([C@@H]3CC[C@@H](NC(=O)OC(C)C)CO3)s2)c(S(=O)(=O)NC(C)(C)C)c1 [Ex. 60A]"
recorded_number = 0.9

[[record]]
compound = "CC(C)OC(=O)N[C@H]1CC[C@H](c2ncc(-c3ccc(NC(=O)NCc4ccccc4)cc3S(=O)(=O)NC(C)(C)C)s2)CC1 [Ex. 66A]"
recorded_number = 1.4


A: C[C@H](NC(=O)Nc1ccc(-c2cnc(C3CCC(NC(=O)OC4COC4)CC3)s2)c(S(=O)(=O)NC(C)(C)C)c1)c1ccccc1F (stereo partly drawn)
B: CC(C)OC(=O)N[C@H]1CC[C@H](c2ncc(-c3ccc(NC(=O)OC[C@H]4CCCN4C)cc3S(=O)(=O)NC(C)(C)C)s2)CC1
Higher efflux ratio at 90 min: A or B ? # respond with the chosen item's label
B
(B: 104, A: 1.1)

P: CC(C)OC(=O)Nc1ccc(-c2cnc([C@H]3CC[C@H](NC(=O)OC(C)C)CO3)s2)c(S(=O)(=O)NC(C)(C)C)c1 [Ex. 60B]
Q: CC(C)OC(=O)N[C@H]1CC[C@H](c2ncc(-c3ccc(NC(=O)NCc4ccccc4)cc3S(=O)(=O)NC(C)(C)C)s2)OC1 [Ex. 59B]
Higher efflux ratio at 90 min: P or Q ? # respond with the chosen item's label
Q
(Q: 2.1, P: 1.2)

a: CC(C)OC(=O)Nc1ccc(-c2cnc([C@H]3CC[C@H](NC(=O)OC4CCCC4)CC3)s2)c(S(=O)(=O)NC(C)(C)C)c1
b: CC(C)(C)NS(=O)(=O)c1cc(NC(=O)NCc2ccccn2)ccc1-c1cnc(C2CCC(NC(=O)OC3COC3)CC2)s1 (stereo not drawn)
Please compare: a and b . Report which one has the smaller efflux ratio at 90 min value. # respond with the chosen item's label
a
(a: 1.2, b: 14.6)

I: CC(C)OC(=O)N[C@@H]1CC[C@@H](c2ncc(-c3ccc(NC(=O)NCc4ccccc4)cc3S(=O)(=O)NC(C)(C)C)s2)NC1
II: CC(C)OC(=O)N[C@H]1CC[C@H](c2ncc(-c3ccc(NC(=O)NCc4cccc(F)c4)cc3S(=O)(=O)NC(C)(C)C)s2)CC1
III: CC(C)OC(=O)N[C@H]1CC[C@H](c2nc(F)c(-c3ccc(NC(=O)NCc4ccccc4)cc3S(=O)(=O)NC(C)(C)C)s2)CC1
IV: CC(C)OC(=O)N[C@H]1CC[C@H](c2ncc(-c3ccc(NC(=O)N[C@H](C)c4ccccn4)cc3S(=O)(=O)NC(C)(C)C)s2)CC1
Returns the items ordered by efflux ratio at 90 min, from maximum to minimum. Reply: labels, ordered per the request.
I, III, IV, II

P: CC(C)OC(=O)N[C@@H]1CC[C@@H](c2ncc(-c3ccc(NC(=O)NCc4ccccc4)cc3S(=O)(=O)NC(C)(C)C)s2)OC1 [Ex. 59A]
Q: CC(C)(C)NS(=O)(=O)c1cc(NC(=O)NCc2ccccc2)ccc1-c1cnc([C@H]2CC[C@H](NC(=O)OC3COC3)CC2)s1
Higher efflux ratio at 90 min: P or Q ? # respond with the chosen item's label
P
(P: 3.1, Q: 1.4)

1: C[C@H](NC(=O)Nc1ccc(-c2cnc(C3CCC(NC(=O)OC4COC4)CC3)s2)c(S(=O)(=O)NC(C)(C)C)c1)c1ccccc1 (stereo partly drawn)
2: CC(C)OC(=O)Nc1ccc(-c2sc(C3CCC(NC(=O)OC(C)C)CC3)nc2F)c(S(=O)(=O)NC(C)(C)C)c1 (stereo not drawn)
Higher efflux ratio at 90 min: 1 or 2 ? # respond with the chosen item's label
1

1: CC(C)OC(=O)Nc1ccc(-c2cnc([C@H]3CC[C@H](NC(=O)OC(C)(C)C)CC3)s2)c(S(=O)(=O)NC(C)(C)C)c1
2: CC(C)OC(=O)Nc1ccc(-c2cnc(N3CCN(C(=O)OC(C)C)CC3)s2)c(S(=O)(=O)NC(C)(C)C)c1
3: CC(C)OC(=O)Nc1ccc(-c2cnc(C34CCC(NC(=O)OC(C)C)(CC3)CC4)s2)c(S(=O)(=O)NC(C)(C)C)c1
List the 3 entries from lowest efflux ratio at 90 min to highest efflux ratio at 90 min value. Reply: labels, ordered per the request.
2, 3, 1
